Sourced from ChEMBL document CHEMBL5724914

# condition_set: human gut metagenome, 24 h, 2 µM; further: call rule not given here
property_name: Bacterial Biotransformation

Worked set:
CCN(CC)C(C)CN1c2ccccc2Sc2ccccc21 (centres undefined) = Compound metabolized
Cc1cn([C@H]2C[C@H](N=[N+]=[N-])[C@@H](CO)O2)c(=O)[nH]c1=O = Compound NOT metabolized
Fc1ccc([C@@H]2CCNC[C@H]2COc2ccc3c(c2)OCO3)cc1 = Compound metabolized
CCCc1nc(C(C)(C)O)c(C(=O)OCc2oc(=O)oc2C)n1Cc1ccc(-c2ccccc2-c2nnn[nH]2)cc1 = Compound NOT metabolized
COc1ccccc1N1CCN(CC(O)COc2cccc3ccccc23)CC1 (centres undefined) = Compound NOT metabolized
CC(O)(CS(=O)(=O)c1ccc(F)cc1)C(=O)Nc1ccc(C#N)c(C(F)(F)F)c1 (centres undefined) [BICALUTAMIDE] = Compound NOT metabolized
CC(Oc1c(Cl)cccc1Cl)C1=NCCN1 (centres undefined) = Compound metabolized
CS(=O)(=O)O.OC(CCN1CCCCC1)(c1ccccc1)c1ccccc1 [PRIDINOL METHANESULFONATE] = Compound metabolized

Now for the compound whose Bacterial Biotransformation we want.
State its Bacterial Biotransformation for this compound: O=C(NCc1ccccc1)OCCO [BURAMATE]
Compound NOT metabolized
